Where these numbers come from: PubChem BioAssay (NCI)

- Test system: SNB-19 CNS
- assay.comment: NCI-60 one-dose screen, 48 h (100 = growth as untreated, 0 = no growth, -100 = all killed)
- measurement.setup: 10 µM
The panel holds about 83,000 compounds, 20% with a hit somewhere; the sample as a whole holds those more often.
measurement.name: growth (%)
# value in %; strip the unit string

For record COc1cc(C2=Nc3c/c(=C\c4c(O)[nH]c5ccc(Cl)cc45)ccc3=N2)cc(OC)c1OC the listed growth is -30.9

For record Cc1cn(C(=O)/C(Cl)=C(/Cl)C(=O)O)c2ccccc12 the listed growth is 106

For record COC(=O)c1cnc2c(c1)Oc1ccccc1-c1ccnn1-2 the listed growth is 106

For record COc1ccc(Nc2nc(NCc3ccccc3)c3ccccc3n2)cc1 the listed growth is 14.4

For record COc1ccc(-c2nnc(SCC(=O)c3ccccc3)o2)cc1 the listed growth is 96.9

For record CCC(CCNc1cc(OC)cc2cccnc12)CN1C(=O)c2ccccc2C1=O (stereo not drawn) the listed growth is 103

For record CC(C)=C1CCC(C)C/C1=N\N=C(N)N (stereo not drawn) the listed growth is 97.5

For record C/C=C\COc1cc(C)c(Cl)cc1Cl the listed growth is 97.3

For record C=CCOc1ccc2c(c1)CC=C1[C@@H]2CC[C@]2(C)C(=O)/C(=N/O)C[C@@H]12 the listed growth is 104

For record CCCCCCCCCCCCCC[n+]1ccccc1 the listed growth is -45.4

For record C[C@H](NC(=O)[C@@H]1CSSC[C@@H](NC(=O)Cc2nc3ccccc3cc2O)C(=O)NCC(=O)N1C)c1ccccc1 the listed growth is 95.2

For record Cn1c([N+](=O)[O-])cnc1/C=C1\Oc2ccc(Br)cc2C1=O the listed growth is 1.52

For record Cc1cc(Cl)ccc1Nc1nc(C(F)(F)F)ccc1C(=O)N/N=C/c1ccccc1Cl the listed growth is 29.5

---

- Test system: MALME-3M melanoma
- assay.comment: NCI-60 one-dose screen, 48 h (100 = growth as untreated, 0 = no growth, -100 = all killed)
- measurement.setup: 10 µM
Compounds without any hit were thinned out: in the full panel of roughly 83,000, 20% have a hit.
Recorded growth values for a group of molecules are listed next.
# value in %; strip the unit string

Worked set:
>  <molecule>
COc1ccc(C(=O)/C=C/c2cc(-c3ccc4c(c3)OCO4)n[nH]2)cc1OC

>  <test.target>
MALME-3M melanoma

>  <unit.name>
%

>  <growth>
94.4

$$$$
>  <molecule>
Cc1noc(C)c1-c1ccc2nc(NC(=O)[C@H]3CCN(C#N)C3)cn2c1

>  <test.target>
MALME-3M melanoma

>  <unit.name>
%

>  <growth>
75.6

$$$$
>  <molecule>
NC1CCC(Nc2nc(NCc3cc(Cl)ccc3O)c3ncn(C4CCCC4)c3n2)CC1 (stereo not given)

>  <test.target>
MALME-3M melanoma

>  <unit.name>
%

>  <growth>
-65.5

$$$$

For record COc1ccc(-c2oncc2-c2cc(OC)c3c(c2)OCO3)cc1 the listed growth is 52.4

For record CN(C)c1ccc2c(c1)OC(N)=C(C#N)C2c1ccc2c(c1)CCO2 (stereo not given) the listed growth is 87.5

---

- Tested on: SNB-19 CNS
- assay.comment: NCI-60 one-dose screen, 48 h
- measurement.setup: 10 µM
- Method: Growth inhibition of the SNB-19 human tumor cell line is measured as a screen for anti-cancer activity. Cells are grown in 96 well plates and exposed to the test compound for 48 hours. Compounds are tested at a single concentration, which is 10^-5 M for most compounds. The reported endpoint is percent growth (GI% or GIPRCNT), where numbers from 0 - 100% represent growth inhibition, and numbers from -100% - 0 represent cell death. For example, a value of 40 represents 60% growth inhibition. […]
The panel holds about 83,000 compounds, 20% with a hit somewhere; the sample as a whole holds those more often. Calls of active or inactive are those of the source. How the source made its calls: active means growth percent below 10; inactive means the rest.
Result category, one only: 1 for active, 0 for inactive

Record excerpt, results attached:
>  <compound>
CC(C)C(C)C(N)C(=O)O (configuration not stated)

>  <test.target>
SNB-19 CNS

>  <category>
0

$$$$
>  <compound>
CCCCCCCCCCN=C(c1ccc(N(C)C)cc1)c1ccc(N(C)C)cc1

>  <test.target>
SNB-19 CNS

>  <category>
0

$$$$

IN: Answer briefly: the call reported for O=C(O)CCCCSCCCCC(=O)O in this assay.
OUT: 0

IN: Answer briefly: the call reported for CCOC(=O)[C@@H](Cc1ccccc1)NC(=O)c1[nH]c2ccc(Cl)cc2c(=O)c1C in this assay.
OUT: 0

IN: Answer briefly: the call reported for CCC(OC(=O)CC(C)C)c1ccccc1 (configuration not stated) in this assay.
OUT: 0
